Subject of test: Angiotensin II receptor (AT-1) type-1 (Rattus norvegicus, UniProt P29089+P25095)
Experiment: Inhibitory concentration against binding of [125I]angiotensin II to rat liver expressing Angiotensin II receptor
Recorded metric: IC50 (nM)

Worked set:
>>> df
                              smiles_string                           subject_of_test  uom  numeric_result
0  CCCc1nc(-n2cccc2)c(/C=C(\C)C(=O)OCC)n1Cc1ccc(-c2ccccc2-c2nn[nH]n2)cc1  Angiotensin II receptor (AT-1) type-1 (Rattus norvegicus, UniProt P29089+P25095)   nM             2.8
1  CCCc1nc(-n2cccc2C(=O)OC)c(C#N)n1Cc1ccc(-c2ccccc2-c2nn[nH]n2)cc1  Angiotensin II receptor (AT-1) type-1 (Rattus norvegicus, UniProt P29089+P25095)   nM            53.3
2  CCCc1nc(-n2c(Cl)ccc2Cl)c(C(=O)OCC)n1Cc1ccc(-c2ccccc2-c2nn[nH]n2)cc1  Angiotensin II receptor (AT-1) type-1 (Rattus norvegicus, UniProt P29089+P25095)   nM            3.93
3  CCCc1nc(-n2c(C)ccc2CCC)c(C(=O)O)n1Cc1ccc(-c2ccccc2-c2nn[nH]n2)cc1  Angiotensin II receptor (AT-1) type-1 (Rattus norvegicus, UniProt P29089+P25095)   nM             0.9

P = CCCc1nc(-n2c(C)ccc2C)c(C=O)n1Cc1ccc(-c2ccccc2-c2nn[nH]n2)cc1
Q = CCCc1nc(-n2c(C)ccc2C)c(C(=O)O)n1Cc1ccc(-c2ccccc2-c2nn[nH]n2)cc1
R = CCCc1nc(-n2c(C)ccc2C)c(C(=O)OC)n1Cc1ccc(-c2ccccc2-c2nn[nH]n2)cc1
INPUT: Sort low-to-high on IC50, please. List each label, following the requested order.
OUTPUT: Q, P, R
(Q: 0.82 nM, P: 13.7 nM, R: 20.9 nM)

====

Subject of test: Angiotensin II receptor (AT-1) type-1 (Rattus norvegicus, UniProt P29089+P25095)
Experiment: Inhibitory concentration against binding of [125I]angiotensin II to rat liver expressing Angiotensin II receptor
Recorded metric: IC50 (nM)

a = CCCc1nc(-n2cccc2C(=O)O)c(C(N)=O)n1Cc1ccc(-c2ccccc2-c2nn[nH]n2)cc1
b = CCCCc1nc(-n2cccc2C(=O)C(F)(F)F)c(C(=O)OC)n1Cc1ccc(-c2ccccc2-c2nn[nH]n2)cc1
c = CCCc1nc(-n2c(C)ccc2C)c(C#N)n1Cc1ccc(-c2ccccc2-c2nn[nH]n2)cc1
d = CCCc1nc(-n2cccc2C=O)c(C(=O)O)n1Cc1ccc(-c2ccccc2-c2nn[nH]n2)cc1
INPUT: Descending sort on IC50 required. List each label, following the requested order.
OUTPUT: c, a, b, d
